Origin of values: patent US20160318856A1

Test system: eIF2α phosphorylation (eIF2•GTP•Met-tRNAi ternary complex; HRI activation)
TEST NAME: surrogate dual luciferase eIF2α phosphorylation (ternary complex) assay
Format: cell-based, human
CONDITIONS: 15 μM compound
MEASURE: Emax (F/R)

{"MOLECULE": "CSc1ccc(NC(=O)N[C@H]2CC[C@H](OCc3c(F)cccc3F)CC2)cc1 [II-10p]", "MEASURED ON": "eIF2α phosphorylation (eIF2•GTP•Met-tRNAi ternary complex; HRI activation)", "UNIT SYMBOL": "F/R", "NUMERIC VALUE": 0.98}
{"MOLECULE": "CSc1ccccc1NC(=O)N[C@H]1CC[C@H](OCc2c(F)cccc2F)CC1 [II-10o]", "MEASURED ON": "eIF2α phosphorylation (eIF2•GTP•Met-tRNAi ternary complex; HRI activation)", "UNIT SYMBOL": "F/R", "NUMERIC VALUE": 0.90}
{"MOLECULE": "O=C(Nc1ccccc1I)N[C@H]1CC[C@H](OCc2c(F)cccc2F)CC1", "MEASURED ON": "eIF2α phosphorylation (eIF2•GTP•Met-tRNAi ternary complex; HRI activation)", "UNIT SYMBOL": "F/R", "NUMERIC VALUE": 0.74}
{"MOLECULE": "Cc1cccc(NC(=O)N[C@H]2CC[C@H](OCc3c(F)cccc3F)CC2)c1", "MEASURED ON": "eIF2α phosphorylation (eIF2•GTP•Met-tRNAi ternary complex; HRI activation)", "UNIT SYMBOL": "F/R", "NUMERIC VALUE": 0.89}
{"MOLECULE": "O=C(Nc1cccc(Cl)c1)N[C@H]1CC[C@H](OCc2c(F)cccc2F)CC1", "MEASURED ON": "eIF2α phosphorylation (eIF2•GTP•Met-tRNAi ternary complex; HRI activation)", "UNIT SYMBOL": "F/R", "NUMERIC VALUE": 0.78}
{"MOLECULE": "O=C(Nc1ccccc1C(F)(F)F)N[C@H]1CC[C@H](OCc2c(F)cccc2F)CC1", "MEASURED ON": "eIF2α phosphorylation (eIF2•GTP•Met-tRNAi ternary complex; HRI activation)", "UNIT SYMBOL": "F/R", "NUMERIC VALUE": 0.80}

---

Tested on: eIF2α phosphorylation (eIF2•GTP•Met-tRNAi ternary complex; HRI activation)
TEST NAME: surrogate dual luciferase eIF2α phosphorylation (ternary complex) assay
Assay type: cell-based, human
CONDITIONS: 7.5 μM compound

{"COMPOUND": "O=C(Nc1cccc(F)c1)N[C@H]1CC[C@H](OCc2c(F)cccc2F)CC1 [II-1m]", "Emax (F/R)": 0.72}
{"COMPOUND": "O=C(Nc1ccccc1OC(F)(F)F)N[C@H]1CC[C@H](OCc2c(F)cccc2F)CC1 [II-6o]", "Emax (F/R)": 0.93}
{"COMPOUND": "O=C(Nc1ccc(C(F)(F)F)cc1)N[C@H]1CC[C@H](OCc2c(F)cccc2F)CC1 [II-5p]", "Emax (F/R)": 0.91}
{"COMPOUND": "O=C(Nc1ccccc1Cl)N[C@H]1CC[C@H](OCc2c(F)cccc2F)CC1 [II-2o]", "Emax (F/R)": 0.81}
{"COMPOUND": "O=C(Nc1ccccc1Br)N[C@H]1CC[C@H](OCc2c(F)cccc2F)CC1 [II-3o]", "Emax (F/R)": 0.96}
{"COMPOUND": "O=C(Nc1ccc(I)cc1)N[C@H]1CC[C@H](OCc2c(F)cccc2F)CC1 [II-4p]", "Emax (F/R)": 0.76}
